Data origin, for the record: PubChem BioAssay (NCI)

- System: NCI-H23 lung
- Test description: NCI tumour cell line growth inhibition, 48 h
Readout: TGI

• COc1cc2cc3c4c(cc(OC)c(OC)c4c2cc1OC)CCN3C(=O)OCCN1CCNCC1 = 31.8 µM
• C=C(CCC/C(C)=C/C=C/[C@]1(C)CCCc2ccoc21)CC(=O)O = > 100 µM
• CCN(CC)c1ccc2c(c1)OC(N)=C(C#N)C2c1cc(OC)c2c(c1)OCO2 (centres undefined) = 14.5 µM
• O=Cc1cn(CCCCCCCCCCCCn2cc(C=O)c3ccccc32)c2ccccc12 = > 100 µM
